- Test system: LTB4 production in human whole blood
- runDescription: LTB4 production inhibition assay in human whole blood (calcimycin-stimulated)
- Type: cell-based
- testSettings: heparinized human whole blood, 15 min 37° C., calcimycin 20 μM 30 min, plasma LTB4 by HTRF
So basically: is IC50 under 2000 nM? Then yes (1). Not under? Then no (0).

Inquiry: Dear colleague, could you confirm whether IC50 of c1ccc(COc2ccc(Oc3ccc(-c4ccn[nH]4)cc3)cc2)cc1 falls below 2000 nM? Thanks.
Reply text: no (0)

Inquiry: // query: O=C1N[C@H](COc2ccc(Oc3ccc(-c4ccn[nH]4)cn3)cc2)CO1
Reply text: yes (1)

Inquiry: // query: c1cc(-c2ccc(Cc3ccc(OCCN4CCOCC4)cc3)cc2)[nH]n1
Reply text: yes (1)

Inquiry: // query: c1cc(-c2ccc(Oc3ccc(OCC4CCCOC4)cc3)cc2)[nH]n1 (centres unmarked)
Reply text: yes (1)

Inquiry: // query: Cn1ccnc1COc1ccc(Oc2ccc(-c3ccn[nH]3)cc2)cc1
Reply text: no (0)

Inquiry: // query: c1cncc(COc2ccc(Oc3ccc(-c4ccn[nH]4)cc3)cc2)c1
Reply text: no (0)

Inquiry: // query: O=C1NCC[C@@H]1Oc1ccc(Oc2ccc(-c3ccn[nH]3)cc2)cc1
Reply text: no (0)

Inquiry: // query: c1ccc2[nH]c(COc3ccc(Oc4ccc(-c5ccn[nH]5)cc4)cc3)nc2c1
Reply text: no (0)

Inquiry: // query: Cc1nnsc1COc1ccc(Oc2ccc(-c3ccn[nH]3)cc2)cc1
Reply text: yes (1)

Source of measurements: patent US9139567B2
